Reference for the values: patent US20100196385A1

- experimental-system: T1, human soluble DLL4 (R&D systems catalog #1056-D4-050) (human, UniProt Q9NR61 27-524)
- T1 construct: Catalog number as printed; perhaps the same product as #1506-D4; also called antigen DLL4
- T1 sequence (Q9NR61 27-524 limits assumed): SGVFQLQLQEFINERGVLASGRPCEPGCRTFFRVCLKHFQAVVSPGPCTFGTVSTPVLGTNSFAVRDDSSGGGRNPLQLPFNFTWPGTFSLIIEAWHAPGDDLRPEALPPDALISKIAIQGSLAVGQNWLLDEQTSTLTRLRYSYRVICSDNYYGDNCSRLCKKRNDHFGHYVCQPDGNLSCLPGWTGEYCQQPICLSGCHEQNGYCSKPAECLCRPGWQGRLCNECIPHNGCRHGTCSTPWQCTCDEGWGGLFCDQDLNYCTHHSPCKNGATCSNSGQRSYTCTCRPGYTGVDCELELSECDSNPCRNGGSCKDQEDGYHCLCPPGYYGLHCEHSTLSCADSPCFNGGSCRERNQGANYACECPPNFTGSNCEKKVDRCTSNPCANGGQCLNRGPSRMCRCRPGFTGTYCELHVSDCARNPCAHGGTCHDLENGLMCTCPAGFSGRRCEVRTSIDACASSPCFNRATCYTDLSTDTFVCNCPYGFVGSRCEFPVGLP
- assay-summary: Biacore T100, antibody immobilised, soluble human DLL4 as analyte
Here the recorded Kd is given for each entry.
Please give a number only; it is taken to be in nM.

4B4 IgG2 (antibody, V domains shown, Formatted as IgG2) VH: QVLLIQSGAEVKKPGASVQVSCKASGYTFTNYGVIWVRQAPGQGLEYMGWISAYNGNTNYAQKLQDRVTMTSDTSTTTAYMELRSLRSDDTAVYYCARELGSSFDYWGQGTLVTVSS VL: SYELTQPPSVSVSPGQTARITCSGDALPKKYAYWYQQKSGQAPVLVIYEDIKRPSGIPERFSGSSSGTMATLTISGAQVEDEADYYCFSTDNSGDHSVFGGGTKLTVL	0.336
21H3 (antibody, IgG4, V domains shown, Fully human; used for IgG4 rows and where no isotype is printed; also called 21H3 IgG4) VH: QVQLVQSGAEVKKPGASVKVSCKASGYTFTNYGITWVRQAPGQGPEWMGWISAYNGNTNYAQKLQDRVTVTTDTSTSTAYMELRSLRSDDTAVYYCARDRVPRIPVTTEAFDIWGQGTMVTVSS VL: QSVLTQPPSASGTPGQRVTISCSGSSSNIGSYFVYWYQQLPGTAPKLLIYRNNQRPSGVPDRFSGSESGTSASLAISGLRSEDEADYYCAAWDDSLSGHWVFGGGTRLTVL	0.481
21H3 IgG2 (antibody, V domains shown, Formatted as IgG2) VH: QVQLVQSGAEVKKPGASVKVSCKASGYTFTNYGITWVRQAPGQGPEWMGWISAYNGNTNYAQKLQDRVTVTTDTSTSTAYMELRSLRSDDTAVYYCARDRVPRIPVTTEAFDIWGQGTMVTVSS VL: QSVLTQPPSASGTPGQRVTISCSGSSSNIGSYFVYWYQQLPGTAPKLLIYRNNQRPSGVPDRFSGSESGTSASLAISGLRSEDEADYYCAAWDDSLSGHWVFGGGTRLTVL	0.598

## Task Any idea what its Kd is? The binder is 9G8 (antibody, IgG4, V domains shown, Fully human; used for IgG4 rows and where no isotype is printed; also called 9G8 IgG4) VH: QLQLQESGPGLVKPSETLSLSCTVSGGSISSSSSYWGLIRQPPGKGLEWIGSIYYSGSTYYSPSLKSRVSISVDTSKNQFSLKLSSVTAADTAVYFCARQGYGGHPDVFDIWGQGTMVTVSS VL: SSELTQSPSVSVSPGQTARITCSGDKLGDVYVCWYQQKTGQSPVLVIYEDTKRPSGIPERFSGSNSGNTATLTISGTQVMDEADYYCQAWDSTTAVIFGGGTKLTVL
## Result 0.132

## Task Any idea what its Kd is? The binder is 2H10 (antibody, IgG4, V domains shown, Fully human; used for IgG4 rows and where no isotype is printed; also called 2H10 IgG4) VH: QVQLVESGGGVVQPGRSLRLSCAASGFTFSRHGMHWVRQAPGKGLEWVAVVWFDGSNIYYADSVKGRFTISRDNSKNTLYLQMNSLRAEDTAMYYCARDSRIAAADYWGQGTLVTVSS VL: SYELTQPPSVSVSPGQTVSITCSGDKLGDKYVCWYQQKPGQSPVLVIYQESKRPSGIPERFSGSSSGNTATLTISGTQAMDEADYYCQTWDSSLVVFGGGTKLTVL
## Result 0.981

## Task Any idea what its Kd is? The binder is 4B4 (antibody, IgG4, V domains shown, Fully human; used for IgG4 rows and where no isotype is printed; also called 4B4 IgG4; 4B4.1) VH: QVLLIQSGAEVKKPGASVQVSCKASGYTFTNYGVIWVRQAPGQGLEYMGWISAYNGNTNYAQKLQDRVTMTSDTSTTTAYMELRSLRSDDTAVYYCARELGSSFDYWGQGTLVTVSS VL: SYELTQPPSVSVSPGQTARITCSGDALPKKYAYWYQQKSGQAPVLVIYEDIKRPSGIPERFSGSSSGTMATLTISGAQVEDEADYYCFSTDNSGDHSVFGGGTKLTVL
## Result 0.283
